# subject.of.test: USP2^CD (purified catalytic domain of USP2) (Homo sapiens, UniProt O75604)
# Construct: The purified catalytic domain of USP2 (USP2^CD, in-house purified); His; made in house; host or cells: E. coli BL21 Gold
# protocol.text: Inhibition of purified USP2^CD enzymatic activity (Ub-AMC or Ub-Rho substrate)
# Type: biochemical
# condition.notes: Ub-Rhodamine substrate; Table 2a; read-out: IC50 against purified USP2^CD
property.label: pIC50
Please note pIC50 is a logarithmic value: minus log10 of concentration in mol/L. Answer with that number alone.

Query: Request the reported pIC50 associated with O=C1c2ccccc2C(=O)c2nc(CS(=O)(=O)c3ccc([N+](=O)[O-])cc3)c(CS(=O)(=O)c3ccc([N+](=O)[O-])cc3)nc21 [PCR7991]
Response: 5.77

----------
# subject.of.test: USP8^CD (purified catalytic domain of USP8) (Homo sapiens, UniProt P40818)
# Construct: the purified catalytic domain of USP8 (USP8^CD, in-house purified); made in house; host or cells: E. coli BL21 Gold
# protocol.text: Inhibition of purified USP8^CD enzymatic activity (Ub-AMC or Ub-Rho substrate)
# Assay type: biochemical
# condition.notes: 1 μM compound; Table 1b
Measured inhibition at 1 µM by item
Record the result as a number with its unit.

- smiles.representation: "CS(=O)(=O)Cc1nc2c(nc1CS(C)(=O)=O)C(=O)c1ccccc1C2=O"
  inhibition at 1 µM: "77%"
- smiles.representation: "COc1ccc(S(=O)(=O)Cc2nc3c(nc2CS(=O)(=O)c2ccc(OC)cc2)C(=O)c2ccccc2C3=O)cc1"
  inhibition at 1 µM: "62%"
- smiles.representation: "CCCS(=O)(=O)Cc1nc2c(nc1CS(=O)(=O)CCC)C(=O)c1ccccc1C2=O"
  inhibition at 1 µM: "93%"

Consider the record given below.
Query: Request the reported inhibition at 1 µM associated with COc1ccc(S(=O)(=O)Cc2nc3c(nc2CS(=O)(=O)c2ccc(OC)c(OC)c2)C(=O)c2ccccc2C3=O)cc1OC
Response: 100%

----------
# subject.of.test: USP2^CD (purified catalytic domain of USP2) (Homo sapiens, UniProt O75604)
# Construct: The purified catalytic domain of USP2 (USP2^CD, in-house purified); His; made in house; host or cells: E. coli BL21 Gold
# Sequence (O75604 267-599 limits assumed): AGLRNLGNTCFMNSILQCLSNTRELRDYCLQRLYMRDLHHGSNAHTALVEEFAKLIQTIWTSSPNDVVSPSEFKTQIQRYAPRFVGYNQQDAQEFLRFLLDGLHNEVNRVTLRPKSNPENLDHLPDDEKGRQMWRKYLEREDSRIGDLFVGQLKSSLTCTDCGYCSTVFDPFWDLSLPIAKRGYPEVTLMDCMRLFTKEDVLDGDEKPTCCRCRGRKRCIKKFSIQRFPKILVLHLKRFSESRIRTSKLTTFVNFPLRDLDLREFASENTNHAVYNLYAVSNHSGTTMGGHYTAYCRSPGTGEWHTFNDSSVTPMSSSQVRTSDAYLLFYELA
# protocol.text: Inhibition of purified USP2^CD enzymatic activity (Ub-AMC or Ub-Rho substrate)
# Format: biochemical
property.label: IC50 (nM)
Number in nM, nothing else.

Query: Request the reported IC50 associated with CCCCS(=O)(=O)Cc1nc2c(nc1CS(=O)(=O)CCCC)C(=O)c1ccccc1C2=O [PCR6236]
Response: 2100

----------
Measured inhibition at 1 µM by item
# subject.of.test: USP8^CD (purified catalytic domain of USP8) (Homo sapiens, UniProt P40818)
# Construct: the purified catalytic domain of USP8 (USP8^CD, in-house purified); made in house; host or cells: E. coli BL21 Gold
# Sequence (P40818 777-1109 limits assumed): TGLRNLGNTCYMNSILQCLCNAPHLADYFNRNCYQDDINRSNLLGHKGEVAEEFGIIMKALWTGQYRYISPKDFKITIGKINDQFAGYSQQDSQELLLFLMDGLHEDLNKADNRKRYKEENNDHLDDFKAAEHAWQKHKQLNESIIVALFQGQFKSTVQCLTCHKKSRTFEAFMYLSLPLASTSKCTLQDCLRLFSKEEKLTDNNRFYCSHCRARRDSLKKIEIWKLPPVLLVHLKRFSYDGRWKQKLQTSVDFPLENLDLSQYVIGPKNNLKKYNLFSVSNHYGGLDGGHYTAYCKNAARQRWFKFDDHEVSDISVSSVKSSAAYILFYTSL
# protocol.text: Inhibition of purified USP8^CD enzymatic activity (Ub-AMC or Ub-Rho substrate)
# Type: biochemical
# condition.notes: 1 μM compound; Table 1d
Number in %, nothing else.

Reference set (2 entries):
- smiles.representation: "O=C1c2ccccc2C(=O)c2nc(CS(=O)(=O)c3ccccc3F)c(CS(=O)(=O)c3ccccc3F)nc21"
  inhibition at 1 µM / %: 74
- smiles.representation: "CCCS(=O)(=O)Cc1nc2c(nc1CS(=O)(=O)CCC)C(=O)c1ccccc1C2=O"
  inhibition at 1 µM / %: 93

Query: Requested read-out inhibition at 1 µM, target or system USP8^CD (purified catalytic domain of USP8) (Homo sapiens, UniProt P40818), entry O=C1c2ccccc2C(=O)c2nc(CS(=O)(=O)c3cccc(F)c3)c(CS(=O)(=O)c3cccc(F)c3)nc21
Response: 65

Query: Likewise for COc1ccc(S(=O)(=O)Cc2nc3c(nc2CS(=O)(=O)c2ccc(OC)cc2)C(=O)c2ccccc2C3=O)cc1 ?
Response: 31

Query: Likewise for COc1ccc(S(=O)(=O)Cc2nc3c(nc2CS(=O)(=O)c2ccc(OC)c(OC)c2)C(=O)c2ccccc2C3=O)cc1OC ?
Response: 83

Query: Likewise for O=C1c2ccccc2C(=O)c2nc(CS(=O)(=O)c3ccc(F)c(F)c3F)c(CS(=O)(=O)c3ccc(F)c(F)c3F)nc21 ?
Response: 34

Query: Likewise for CCS(=O)(=O)Cc1nc2c(nc1CS(=O)(=O)CC)C(=O)c1ccccc1C2=O ?
Response: 86

Query: Likewise for O=C1c2ccccc2C(=O)c2nc(CS(=O)(=O)c3cccc(Cl)c3)c(CS(=O)(=O)c3cccc(Cl)c3)nc21 ?
Response: 64

Query: Likewise for CCCCCS(=O)(=O)Cc1nc2c(nc1CS(=O)(=O)CCCCC)C(=O)c1ccccc1C2=O ?
Response: 44

Query: Likewise for O=C1c2ccccc2C(=O)c2nc(CS(=O)(=O)c3ccc4c(c3)OCCO4)c(CS(=O)(=O)c3ccc4c(c3)OCCO4)nc21 ?
Response: 44

Query: Likewise for CS(=O)(=O)Cc1nc2c(nc1CS(C)(=O)=O)C(=O)c1ccccc1C2=O ?
Response: 85

----------
Measured pIC50 by item
# subject.of.test: USP8^CD (purified catalytic domain of USP8) (Homo sapiens, UniProt P40818)
# Construct: the purified catalytic domain of USP8 (USP8^CD, in-house purified); made in house; host or cells: E. coli BL21 Gold
# Sequence (P40818 777-1109 limits assumed): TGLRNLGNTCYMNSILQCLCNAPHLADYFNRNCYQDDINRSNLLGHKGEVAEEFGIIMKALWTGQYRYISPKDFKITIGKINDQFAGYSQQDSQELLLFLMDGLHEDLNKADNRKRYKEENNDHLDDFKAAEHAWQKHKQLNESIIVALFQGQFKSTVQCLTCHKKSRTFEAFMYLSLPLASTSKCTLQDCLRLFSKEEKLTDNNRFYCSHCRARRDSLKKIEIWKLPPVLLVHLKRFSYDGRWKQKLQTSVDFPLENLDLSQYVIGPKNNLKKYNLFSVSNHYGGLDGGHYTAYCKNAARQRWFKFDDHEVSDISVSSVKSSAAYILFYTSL
# protocol.text: Inhibition of purified USP8^CD enzymatic activity (Ub-AMC or Ub-Rho substrate)
# Assay type: biochemical
# condition.notes: Ub-Rhodamine substrate at 0.1 μM; Table 2c; read-out: IC50 USP8 CD
Please note pIC50 is a logarithmic value: minus log10 of concentration in mol/L. Answer with that number alone.

Reference set (5 entries):
- smiles.representation: "O=C1c2ccccc2C(=O)c2nc(CS(=O)(=O)c3cccc(Cl)c3)c(CS(=O)(=O)c3cccc(Cl)c3)nc21"
  value.reported: 6.40
- smiles.representation: "O=C1c2ccccc2C(=O)c2nc(CS(=O)(=O)c3ccccc3F)c(CS(=O)(=O)c3ccccc3F)nc21"
  value.reported: 5.64
- smiles.representation: "CCCS(=O)(=O)Cc1nc2c(nc1CS(=O)(=O)CCC)C(=O)c1ccccc1C2=O"
  value.reported: 7.40
- smiles.representation: "CS(=O)(=O)Cc1nc2c(nc1CS(C)(=O)=O)C(=O)c1ccccc1C2=O"
  value.reported: 8.00
- smiles.representation: "CCS(=O)(=O)Cc1nc2c(nc1CS(=O)(=O)CC)C(=O)c1ccccc1C2=O"
  value.reported: 7.10

Query: Request the reported pIC50 associated with O=C1c2ccccc2C(=O)c2nc(CS(=O)(=O)c3cccc(F)c3)c(CS(=O)(=O)c3cccc(F)c3)nc21
Response: 6.40

The measured values listed here are drawn from patent US11306063B2.
